- tested-target: human Nav1.8/b3 (Homo sapiens, UniProt Q9Y5Y9)
- Construct: expressed in transfected cells; host or cells: CHO
- Sequence (Q9Y5Y9 whole entry): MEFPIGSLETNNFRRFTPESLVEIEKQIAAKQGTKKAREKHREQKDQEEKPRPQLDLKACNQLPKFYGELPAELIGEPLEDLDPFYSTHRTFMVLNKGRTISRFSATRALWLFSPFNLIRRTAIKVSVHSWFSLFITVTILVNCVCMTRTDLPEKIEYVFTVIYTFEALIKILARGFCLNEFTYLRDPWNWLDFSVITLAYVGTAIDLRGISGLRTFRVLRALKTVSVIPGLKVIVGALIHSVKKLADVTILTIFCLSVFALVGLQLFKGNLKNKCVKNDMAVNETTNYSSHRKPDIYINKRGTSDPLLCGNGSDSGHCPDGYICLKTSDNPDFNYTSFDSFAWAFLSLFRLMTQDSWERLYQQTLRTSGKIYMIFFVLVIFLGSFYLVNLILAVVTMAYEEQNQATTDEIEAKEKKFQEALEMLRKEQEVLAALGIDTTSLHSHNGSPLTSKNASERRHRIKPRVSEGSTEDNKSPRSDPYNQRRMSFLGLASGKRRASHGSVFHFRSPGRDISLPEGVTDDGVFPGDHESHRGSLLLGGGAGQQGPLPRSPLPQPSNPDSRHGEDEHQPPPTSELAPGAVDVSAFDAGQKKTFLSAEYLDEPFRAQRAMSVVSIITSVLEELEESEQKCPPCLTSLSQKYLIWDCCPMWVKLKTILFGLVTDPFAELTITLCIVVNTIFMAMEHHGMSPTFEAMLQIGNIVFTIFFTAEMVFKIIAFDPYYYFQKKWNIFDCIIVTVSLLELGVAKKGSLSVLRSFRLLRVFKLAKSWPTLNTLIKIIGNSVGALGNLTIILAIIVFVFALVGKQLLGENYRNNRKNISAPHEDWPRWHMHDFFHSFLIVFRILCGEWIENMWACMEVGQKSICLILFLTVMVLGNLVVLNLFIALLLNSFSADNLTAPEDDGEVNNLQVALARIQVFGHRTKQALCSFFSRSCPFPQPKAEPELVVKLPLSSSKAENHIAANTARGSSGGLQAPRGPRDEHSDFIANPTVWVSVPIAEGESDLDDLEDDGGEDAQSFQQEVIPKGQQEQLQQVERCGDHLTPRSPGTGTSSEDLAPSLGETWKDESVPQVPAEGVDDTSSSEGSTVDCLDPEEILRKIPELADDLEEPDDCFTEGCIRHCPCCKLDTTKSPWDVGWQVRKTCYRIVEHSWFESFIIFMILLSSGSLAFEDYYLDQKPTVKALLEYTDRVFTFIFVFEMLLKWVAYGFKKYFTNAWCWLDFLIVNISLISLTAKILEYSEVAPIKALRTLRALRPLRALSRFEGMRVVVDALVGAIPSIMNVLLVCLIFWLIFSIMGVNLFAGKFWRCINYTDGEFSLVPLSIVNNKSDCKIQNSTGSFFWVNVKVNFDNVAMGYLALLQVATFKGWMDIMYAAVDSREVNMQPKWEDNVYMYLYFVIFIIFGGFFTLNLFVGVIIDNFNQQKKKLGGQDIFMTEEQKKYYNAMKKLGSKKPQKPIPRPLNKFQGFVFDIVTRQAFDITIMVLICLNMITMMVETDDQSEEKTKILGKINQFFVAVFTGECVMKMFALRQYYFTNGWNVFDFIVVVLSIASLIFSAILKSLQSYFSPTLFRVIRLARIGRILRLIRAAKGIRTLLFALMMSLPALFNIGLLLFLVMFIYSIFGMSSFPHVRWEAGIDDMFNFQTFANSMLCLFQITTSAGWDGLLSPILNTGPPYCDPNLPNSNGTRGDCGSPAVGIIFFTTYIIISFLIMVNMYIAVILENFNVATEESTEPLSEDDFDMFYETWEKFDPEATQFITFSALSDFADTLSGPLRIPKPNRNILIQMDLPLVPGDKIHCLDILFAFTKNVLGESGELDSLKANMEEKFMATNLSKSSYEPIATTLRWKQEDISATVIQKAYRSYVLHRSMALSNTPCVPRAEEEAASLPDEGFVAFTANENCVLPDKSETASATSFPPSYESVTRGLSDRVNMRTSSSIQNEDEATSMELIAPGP
- Sequence (Q9NY72 23-215 partner): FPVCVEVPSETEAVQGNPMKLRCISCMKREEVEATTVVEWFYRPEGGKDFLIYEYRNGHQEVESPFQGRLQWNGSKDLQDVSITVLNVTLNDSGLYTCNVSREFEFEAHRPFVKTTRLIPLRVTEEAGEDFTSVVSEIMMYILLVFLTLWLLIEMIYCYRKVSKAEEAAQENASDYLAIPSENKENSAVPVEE
- procedure-details: Compound Profiling Human NaV1.8/β3 Cell Line—SyncroPatch384PE Assay (automated patch clamp, stably transfected CHO cells)
- Format: cell-based
- reported-conditions: P2 (IC50, inactivated state block), P2 measurement, inactivated state block; Nav1.8/b3 CHO cells, inactivation step −35 mV 10 sec; fourth set of compounds
pIC50: −log10 of the molar value.
Measured pIC50 by item
property-name: pIC50

{"columns": ["molecule", "tested-target", "result"],
 "data": [
  ["Cc1nc(F)ccc1Oc1ncc(C(F)(F)F)c(C)c1C(=O)Nc1cccc([S@@](C)(=O)=NC(=O)[C@H]2CCCO2)c1 [Example 14D]", "human Nav1.8/b3 (Homo sapiens, UniProt Q9Y5Y9)", "> 8.30"],
  ["Cc1nc(F)ccc1Oc1ncc(C(F)(F)F)c(C)c1C(=O)Nc1cccc([S@@](C)(=O)=NC(=O)[C@@H]2CCOC2)c1 [Example 10D]", "human Nav1.8/b3 (Homo sapiens, UniProt Q9Y5Y9)", "> 8.30"],
  ["Cc1nc(F)ccc1Oc1ncc(C(F)(F)F)c(C)c1C(=O)Nc1cccc([S@@](C)(=O)=NC(=O)[C@@H]2C[C@H](O)CN2)c1 [Example 27D]", "human Nav1.8/b3 (Homo sapiens, UniProt Q9Y5Y9)", "> 8.30"],
  ["Cc1nc(F)ccc1Oc1ncc(C(F)(F)F)c(C)c1C(=O)Nc1cccc([S@@](C)(=O)=NC(=O)[C@@H](C)O)c1 [Example 16D]", "human Nav1.8/b3 (Homo sapiens, UniProt Q9Y5Y9)", "> 8.30"],
  ["Cc1nc(F)ccc1Oc1nnc(C(F)(F)F)c(C)c1C(=O)Nc1cccc([S@@](C)(=O)=NC(=O)[C@@H](C)O)c1 [Example 19D]", "human Nav1.8/b3 (Homo sapiens, UniProt Q9Y5Y9)", "7.30 to 8.30"],
  ["CNCC(=O)N=[S@](C)(=O)c1cccc(NC(=O)c2c(Oc3ccc(F)nc3C)nnc(C(F)(F)F)c2C)c1 [Example 25D]", "human Nav1.8/b3 (Homo sapiens, UniProt Q9Y5Y9)", "> 8.30"]
]}

---

Measured IC50 by item
- tested-target: human Nav1.8/b3 (Homo sapiens, UniProt Q9Y5Y9)
- Construct: expressed in transfected cells; host or cells: CHO
- procedure-details: Compound Profiling Human NaV1.8/β3 Cell Line—SyncroPatch384PE Assay (automated patch clamp, stably transfected CHO cells)
- Assay type: cell-based
- reported-conditions: P1 (IC50, resting state block), P1 measurement, resting state block; Nav1.8/b3 CHO cells, holding potential −120 mV; third set of compounds

{"columns": ["molecule", "IC50"],
 "data": [
  ["Cc1nc(F)ccc1Oc1nc(C(F)(F)F)c(C#N)c(C)c1C(=O)Nc1cccc([S@](C)(=N)=O)c1 [Example 113C]", "5 to 50 nM"],
  ["Cc1nc(F)ccc1Oc1ncc(C(F)(F)F)c(C)c1C(=O)Nc1ccc(C(N)=O)cc1 [Example 118C]", "< 5 nM"],
  ["Cc1nc(F)ccc1Oc1ncc(C(F)(F)F)c(C)c1C(=O)Nc1cccc(S(C)(=N)=N)c1 [Example 40C]", "< 5 nM"],
  ["Cc1nc(F)ccc1Oc1ncc(C(F)(F)F)c(C)c1C(=O)Nc1cccc(C(N)=O)c1 [Example 119C]", "< 5 nM"],
  ["Cc1nc(O)ccc1Oc1ncc(C(F)(F)F)c(C)c1C(=O)Nc1cccc([S@](C)(=N)=O)c1 [Example 117C]", "> 200 nM"],
  ["Cc1nc(F)ccc1Oc1ncc(C(F)(F)F)c(C)c1C(=O)Nc1ccc(F)c([S@](C)(=N)=O)c1 (single isomer, unassigned) [Example 15C]", "5 to 50 nM"],
  ["Cc1nc(F)ccc1Oc1ncc(C(F)(F)F)c(C)c1C(=O)Nc1ccc(C(N)=O)nc1 [Example 111C]", "> 200 nM"]
]}
